Test system: Brain
Test: AUC (0 to last) in Wistar rat brain at 10 mg/kg, po
Format: ADME, organism-based
Parameters: dose 10 mg/kg, route oral, time 0 - last
Conditions: in vivo
attribute measured: AUClast (ng·h/mL)

response.value for "O=C(O)c1cc2occc2[nH]1" (field: AUClast) = 1520

(A) Oc1noc2cc(Cl)ccc12
(B) O=C(O)c1cc2sccc2[nH]1
Ask: # argmax over AUClast for candidates A and B Pick one and reply with its label.
Result: B

* * *

Assay: Plasma clearance in Wistar rat plasma at 10 mg/kg, iv
Format: ADME, organism-based
Set-up: dose 10 mg/kg, route intravenous
attribute measured: clearance (mL/min/kg)
Quick reminder: number only, in mL/min/kg, skip the unit.

response.value for "Cc1cc(C(=O)O)n[nH]1" (field: clearance) = 11

* * *

Assay: Oral bioavailability (0 to last) in Wistar rat plasma at 30 mg/kg
Assay type: ADME, organism-based
attribute measured: bioavailability (%)
Quick reminder: number only, in %, skip the unit.

response.value for "Cc1cc(C(=O)O)n[nH]1" (field: bioavailability) = 97

* * *

Tested on: Brain
Test: AUC (0 to last) in Swiss mouse brain at 30 mg/kg, po
Type: ADME, organism-based
Set-up: time 0 - last, dose 30 mg/kg, route oral
Settings: in vivo
attribute measured: AUClast (ng·h/mL)
Quick reminder: number only, in ng·h/mL, skip the unit.

response.value for "Cc1cc(C(=O)O)n[nH]1" (field: AUClast) = 831

* * *

Assay: Octanol-water partition coefficient, log P of the neutral compound by pH-metric method
Type: physicochemical
attribute measured: logP

Here is how some compounds turned out for logP.
response.value for "O=c1[nH]c2ccc(F)c(Cl)c2cc1O" (field: logP) = 2.7

response.value for "Oc1noc2cc(Cl)ccc12" (field: logP) = 2.68

response.value for "O=C(O)c1cc2sccc2[nH]1" (field: logP) = 2.11

(I) O=c1[nH]c2cccc(Cl)c2cc1O
(II) O=C(O)c1cc2occc2[nH]1
(III) Cc1cc(C(=O)O)n[nH]1
Ask: Rank ascending by logP. Reply with the item labels sorted in the order that was asked for.
Result: III, II, I
(III: 0.45, II: 1.56, I: 2.57)

* * *

Test: Thermodynamic solubility of the compound in phosphate buffer at pH 7.4 after 24 hrs by HPLC analysis
Type: physicochemical
Details: read-out: Therm_solubility
attribute measured: solubility thermodynamic at 24 h (µM)

response.value for "Oc1noc2cc(Cl)ccc12" (field: solubility thermodynamic at 24 h) = 433

(a) O=C(O)c1cc2occc2[nH]1
(b) O=c1[nH]c2cccc(Cl)c2cc1O
(c) O=c1[nH]c2ccc(F)c(Cl)c2cc1O
Ask: Put the entries in order of solubility thermodynamic at 24 h, starting with the largest number. Reply with the item labels sorted in the order that was asked for.
Result: a, c, b

* * *

Assay: Dissociation constant, pKa of the compound by dip probe absorption spectroscopy technique
Assay type: physicochemical
attribute measured: pKa

response.value for "Cc1cc(C(=O)O)n[nH]1" (field: pKa) = 3.59

(A) O=c1[nH]c2cccc(Cl)c2cc1O
(B) O=C(O)c1cc2sccc2[nH]1
Ask: Lower pKa: A or B ? Pick one and reply with its label.
Result: B

(P) Oc1noc2cc(Cl)ccc12
(Q) O=c1[nH]c2ccc(F)c(Cl)c2cc1O
Ask: # argmax over pKa for candidates P and Q Pick one and reply with its label.
Result: Q
(Q: 7.33, P: 4.07)

* * *

Target: Voltage-gated inwardly rectifying potassium channel KCNH2 (Homo sapiens)
Sequence (Q12809 whole entry): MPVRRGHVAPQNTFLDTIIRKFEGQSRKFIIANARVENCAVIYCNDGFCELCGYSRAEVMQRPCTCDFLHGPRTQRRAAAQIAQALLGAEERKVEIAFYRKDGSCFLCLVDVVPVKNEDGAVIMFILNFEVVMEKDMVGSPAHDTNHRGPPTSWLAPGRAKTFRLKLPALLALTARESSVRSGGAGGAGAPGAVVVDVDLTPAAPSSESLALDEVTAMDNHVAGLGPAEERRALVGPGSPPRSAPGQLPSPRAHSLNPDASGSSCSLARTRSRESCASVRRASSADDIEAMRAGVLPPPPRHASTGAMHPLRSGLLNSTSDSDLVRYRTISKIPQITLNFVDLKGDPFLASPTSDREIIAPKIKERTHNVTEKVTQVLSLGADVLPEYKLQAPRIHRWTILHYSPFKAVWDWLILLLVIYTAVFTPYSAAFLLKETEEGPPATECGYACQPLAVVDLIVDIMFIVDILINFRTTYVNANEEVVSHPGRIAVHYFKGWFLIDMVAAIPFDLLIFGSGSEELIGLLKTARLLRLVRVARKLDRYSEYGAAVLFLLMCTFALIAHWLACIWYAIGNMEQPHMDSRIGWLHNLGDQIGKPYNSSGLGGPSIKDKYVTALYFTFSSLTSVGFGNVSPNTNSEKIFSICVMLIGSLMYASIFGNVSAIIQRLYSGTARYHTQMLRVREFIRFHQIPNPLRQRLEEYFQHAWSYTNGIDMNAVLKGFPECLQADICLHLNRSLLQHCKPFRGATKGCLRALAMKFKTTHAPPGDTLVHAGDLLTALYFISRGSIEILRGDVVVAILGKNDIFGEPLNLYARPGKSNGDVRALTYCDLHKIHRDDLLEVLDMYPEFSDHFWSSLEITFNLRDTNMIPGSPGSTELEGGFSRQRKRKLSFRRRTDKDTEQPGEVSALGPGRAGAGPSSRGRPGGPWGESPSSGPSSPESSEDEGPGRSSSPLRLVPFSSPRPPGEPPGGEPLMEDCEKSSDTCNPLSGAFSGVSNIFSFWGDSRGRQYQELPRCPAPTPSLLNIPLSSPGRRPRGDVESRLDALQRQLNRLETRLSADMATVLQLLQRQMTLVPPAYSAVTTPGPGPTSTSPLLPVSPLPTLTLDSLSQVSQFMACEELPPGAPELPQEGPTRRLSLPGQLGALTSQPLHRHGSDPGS
Assay: Inhibition of human ERG expressed in HEK293 cells by whole cell voltage patch clamp technique
IC50: recorded values

response.value for "Oc1noc2cc(Cl)ccc12" (field: IC50) = > 10 µM

***
response.value for "O=C(O)c1cc2occc2[nH]1" (field: IC50) = > 10 µM

* * *

solubility kinetic at 2 h: recorded values
Experiment: Kinetic solubility of the compound in 0.01 M phosphate buffered saline at pH 7.4 assessed as maximum solubility after 2 hrs
Type: physicochemical
Conditions: read-out: Kinetic_solubility

response.value for "O=c1[nH]c2ccc(F)c(Cl)c2cc1O" (field: solubility kinetic at 2 h) = 65 µM

response.value for "O=C(O)c1cc2occc2[nH]1" (field: solubility kinetic at 2 h) = > 100 µM

response.value for "O=c1[nH]c2cccc(Cl)c2cc1O" (field: solubility kinetic at 2 h) = 55 µM

response.value for "O=C(O)c1cc2sccc2[nH]1" (field: solubility kinetic at 2 h) = > 100 µM

response.value for "Cc1cc(C(=O)O)n[nH]1" (field: solubility kinetic at 2 h) = > 100 µM

***
response.value for "Oc1noc2cc(Cl)ccc12" (field: solubility kinetic at 2 h) = > 100 µM

* * *

Biological target: D-amino-acid oxidase (Homo sapiens, UniProt P14920)
Sequence (P14920 whole entry): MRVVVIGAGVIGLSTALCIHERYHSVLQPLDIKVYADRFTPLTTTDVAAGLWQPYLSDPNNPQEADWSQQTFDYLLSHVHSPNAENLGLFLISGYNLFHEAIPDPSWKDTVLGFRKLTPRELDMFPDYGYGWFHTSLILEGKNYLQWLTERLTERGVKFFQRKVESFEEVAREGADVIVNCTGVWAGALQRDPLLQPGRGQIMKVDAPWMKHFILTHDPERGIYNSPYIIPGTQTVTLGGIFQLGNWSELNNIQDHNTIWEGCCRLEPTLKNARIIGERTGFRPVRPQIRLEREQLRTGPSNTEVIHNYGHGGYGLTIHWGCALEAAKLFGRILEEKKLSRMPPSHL
Test: Binding affinity to human recombinant DAAO by steady state study scintillation proximity assay
attribute measured: pKd
API: returns pKd as number; meaning -log10 of concentration in mol/L.

response.value for "O=C(O)c1cc2sccc2[nH]1" (field: pKd) = 7.48

* * *

Test: Cmax in Wistar rat brain at 10 mg/kg, po
Type: ADME, organism-based
Design: dose 10 mg/kg, route oral
attribute measured: Cmax (ng/mL)

Here is how some compounds turned out for Cmax.
response.value for "O=c1[nH]c2ccc(F)c(Cl)c2cc1O" (field: Cmax) = 17.9

response.value for "O=C(O)c1cc2occc2[nH]1" (field: Cmax) = 889

(A) Oc1noc2cc(Cl)ccc12
(B) O=C(O)c1cc2sccc2[nH]1
Ask: # argmax over Cmax for candidates A and B Pick one and reply with its label.
Result: B

* * *

Experiment: Ratio of drug level (0 to last) in brain to plasma in Swiss mouse at 10 mg/kg, po
Type: ADME, organism-based
Parameters: dose 10 mg/kg, route oral
Details: brain and plasma, read-out: BPR
attribute measured: Kp

response.value for "O=C(O)c1cc2sccc2[nH]1" (field: Kp) = 0.06

(a) O=C(O)c1cc2occc2[nH]1
(b) Oc1noc2cc(Cl)ccc12
Ask: Lower Kp: a or b ? Pick one and reply with its label.
Result: b
(b: 0.03, a: 0.08)

* * *

Test: Kinetic solubility of the compound in 0.01 M phosphate buffered saline at pH 7.4 assessed as minimum solubility after 2 hrs
Type: physicochemical
Details: read-out: Kinetic_solubility
attribute measured: solubility kinetic at 2 h (µM)

Here is how some compounds turned out for solubility kinetic at 2 h.
response.value for "Cc1cc(C(=O)O)n[nH]1" (field: solubility kinetic at 2 h) = 100

response.value for "O=c1[nH]c2cccc(Cl)c2cc1O" (field: solubility kinetic at 2 h) = 17

response.value for "O=C(O)c1cc2occc2[nH]1" (field: solubility kinetic at 2 h) = 100

response.value for "Oc1noc2cc(Cl)ccc12" (field: solubility kinetic at 2 h) = 100

(I) O=C(O)c1cc2sccc2[nH]1
(II) O=c1[nH]c2ccc(F)c(Cl)c2cc1O
Ask: Lower solubility kinetic at 2 h: I or II ? Pick one and reply with its label.
Result: II
(II: 3 µM, I: 100 µM)

* * *

Test: Oral bioavailability (0 to last) in Swiss mouse plasma at 10 mg/kg
Format: ADME, organism-based
attribute measured: bioavailability (%)

response.value for "O=C(O)c1cc2sccc2[nH]1" (field: bioavailability) = 56

(1) O=c1[nH]c2ccc(F)c(Cl)c2cc1O
(2) O=C(O)c1cc2occc2[nH]1
(3) O=c1[nH]c2cccc(Cl)c2cc1O
(4) Oc1noc2cc(Cl)ccc12
Ask: Put the entries in order of bioavailability, starting with the largest number. Reply with the item labels sorted in the order that was asked for.
Result: 2, 4, 1, 3

* * *

Test: Apparent permeability across apical to basolateral side in human Caco2 cells by LC-MS/MS analysis
Assay type: ADME, cell-based
Details: Caco-2
attribute measured: Papp A→B (×10⁻⁶ cm/s)

(P) O=C(O)c1cc2sccc2[nH]1
(Q) Oc1noc2cc(Cl)ccc12
Ask: Lower Papp A→B: P or Q ? Pick one and reply with its label.
Result: P
(P: 47 ×10⁻⁶ cm/s, Q: 77 ×10⁻⁶ cm/s)

* * *

Test: Terminal half life in Wistar rat brain at 10 mg/kg, po
Type: ADME, organism-based
Parameters: dose 10 mg/kg, route oral
Conditions: read-out: beta t1/2 (converted)
attribute measured: half-life (h)

response.value for "O=C(O)c1cc2sccc2[nH]1" (field: half-life) = 2

response.value for "O=C(O)c1cc2occc2[nH]1" (field: half-life) = 2

response.value for "Oc1noc2cc(Cl)ccc12" (field: half-life) = 2

* * *

Assay: Volume of distribution in Swiss mouse plasma at 1 mg/kg, iv
Assay type: ADME, organism-based
Parameters: dose 1 mg/kg, route intravenous
attribute measured: Vd (L/kg)

(P) O=c1[nH]c2cccc(Cl)c2cc1O
(Q) O=C(O)c1cc2occc2[nH]1
Ask: # argmax over Vd for candidates P and Q Pick one and reply with its label.
Result: Q

(I) Oc1noc2cc(Cl)ccc12
(II) O=c1[nH]c2ccc(F)c(Cl)c2cc1O
Ask: # argmax over Vd for candidates I and II Pick one and reply with its label.
Result: II
